- system: BRAF^V600E
- Sequence (P28028 whole entry V585E): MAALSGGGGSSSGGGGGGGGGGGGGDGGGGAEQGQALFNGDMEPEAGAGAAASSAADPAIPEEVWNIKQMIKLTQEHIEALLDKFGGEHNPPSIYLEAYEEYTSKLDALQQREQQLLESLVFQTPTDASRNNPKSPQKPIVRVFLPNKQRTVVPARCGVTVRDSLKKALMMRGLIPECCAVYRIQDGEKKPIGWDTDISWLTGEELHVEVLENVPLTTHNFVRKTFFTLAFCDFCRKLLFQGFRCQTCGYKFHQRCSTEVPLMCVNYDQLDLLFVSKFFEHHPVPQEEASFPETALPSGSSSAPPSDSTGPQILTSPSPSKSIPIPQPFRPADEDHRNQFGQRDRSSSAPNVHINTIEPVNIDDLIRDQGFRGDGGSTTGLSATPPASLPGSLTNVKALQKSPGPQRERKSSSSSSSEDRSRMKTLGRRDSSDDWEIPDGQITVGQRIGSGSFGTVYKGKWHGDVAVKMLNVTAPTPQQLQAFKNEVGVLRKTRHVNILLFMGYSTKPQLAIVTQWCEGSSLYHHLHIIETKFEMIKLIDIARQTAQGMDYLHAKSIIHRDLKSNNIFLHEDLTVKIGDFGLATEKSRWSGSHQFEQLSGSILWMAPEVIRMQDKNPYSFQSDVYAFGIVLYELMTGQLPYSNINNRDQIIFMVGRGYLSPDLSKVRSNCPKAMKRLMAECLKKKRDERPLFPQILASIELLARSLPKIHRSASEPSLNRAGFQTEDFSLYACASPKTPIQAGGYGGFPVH
- method-summary: biochemical
property-name: pIC50
To interpret pIC50, take it as minus log10 of a concentration measured in moles per litre.

Given COc1ccc(-c2nc3cc(-c4nnc(SCC(=O)Nc5ccc(C(=O)/C=C/c6ccccc6)cc5)o4)ccc3[nH]2)cc1 , state its recorded pIC50.
5.77

Given COc1ccc(-c2nc3cc(-c4nnc(SCC(=O)Nc5ccc(C(=O)/C=C/c6ccc(Cl)cc6)cc5)o4)ccc3[nH]2)cc1 , state its recorded pIC50.
5.72

Given COc1ccc(-c2nc3cc(-c4nnc(SCC(=O)Nc5ccc(C(=O)/C=C/c6ccc(OC)c(OC)c6)cc5)o4)ccc3[nH]2)cc1 , state its recorded pIC50.
5.43

Given COc1ccc(/C=C/C(=O)c2ccc(NC(=O)CSc3nnc(-c4ccc5[nH]c(-c6ccc(Cl)cc6)nc5c4)o3)cc2)cc1 , state its recorded pIC50.
5.57

Given COc1ccc(-c2nc3cc(-c4nnc(SCC(=O)Nc5ccc(C(=O)/C=C/c6ccccc6)cc5)o4)ccc3[nH]2)cc1OC , state its recorded pIC50.
5.38

Given COc1cc(-c2nc3cc(-c4nnc(SCC(=O)Nc5ccc(C(=O)/C=C/c6ccc(Cl)cc6)cc5)o4)ccc3[nH]2)cc(OC)c1OC , state its recorded pIC50.
5.51

----------
- system: BRAF^V600E
- method-summary: biochemical
property-name: pIC50
To interpret pIC50, take it as minus log10 of a concentration measured in moles per litre.

Given O=C(CSc1nnc(-c2ccc3[nH]c(-c4ccc(Cl)cc4)nc3c2)o1)Nc1ccc(C(=O)/C=C/c2ccc(Cl)cc2)cc1 , state its recorded pIC50.
6.00

Given COc1ccc(/C=C/C(=O)c2ccc(NC(=O)CSc3nnc(-c4ccc5[nH]c(-c6ccc(OC)cc6)nc5c4)o3)cc2)cc1 , state its recorded pIC50.
5.66

Given COc1cc(/C=C/C(=O)c2ccc(NC(=O)CSc3nnc(-c4ccc5[nH]c(-c6ccccc6)nc5c4)o3)cc2)cc(OC)c1OC , state its recorded pIC50.
6.05

Given COc1ccc(-c2nc3cc(-c4nnc(SCC(=O)Nc5ccc(C(=O)/C=C/c6ccc(Cl)cc6)cc5)o4)ccc3[nH]2)cc1OC , state its recorded pIC50.
5.33

----------
- method-summary: MTT cell viability assay in normal cells
- Type: cell-based
- test-settings: human, MCF-10A normal mammary epithelial cells
- Description: To check the safety of prepared compounds and evaluate their selectivity towards tumor cells over normal ones, the toxicity of compounds 7a-x were evaluated by 3-(4,5-Dimethylthiazole-2-yl)-2,5-diphenyltetrazol (MTT) assay on the normal human mammary epithelial cell line (MCF-10 A). The human mammary epithelial cell lines were incubated for four days with a concentration of 50 µM of compounds 7a-x. […]
property-name: viability at 96 h, 50 µM (%)
All answers are understood in %, so give the number only.

Given COc1ccc(-c2nc3cc(-c4nnc(SCC(=O)Nc5ccc(C(=O)/C=C/c6ccccc6)cc5)o4)ccc3[nH]2)cc1OC [Compound 7p] , state its recorded viability at 96 h, 50 µM.
87

Given COc1cc(/C=C/C(=O)c2ccc(NC(=O)CSc3nnc(-c4ccc5[nH]c(-c6ccccc6)nc5c4)o3)cc2)cc(OC)c1OC [Compound 7e] , state its recorded viability at 96 h, 50 µM.
87

Given COc1ccc(/C=C/C(=O)c2ccc(NC(=O)CSc3nnc(-c4ccc5[nH]c(-c6ccccc6)nc5c4)o3)cc2)cc1 [Compound 7c] , state its recorded viability at 96 h, 50 µM.
87

Given COc1ccc(/C=C/C(=O)c2ccc(NC(=O)CSc3nnc(-c4ccc5[nH]c(-c6cc(OC)c(OC)c(OC)c6)nc5c4)o3)cc2)cc1OC [Compound 7x] , state its recorded viability at 96 h, 50 µM.
85

Given COc1cc(-c2nc3cc(-c4nnc(SCC(=O)Nc5ccc(C(=O)/C=C/c6ccccc6)cc5)o4)ccc3[nH]2)cc(OC)c1OC [Compound 7u] , state its recorded viability at 96 h, 50 µM.
90

Given COc1ccc(-c2nc3cc(-c4nnc(SCC(=O)Nc5ccc(C(=O)/C=C/c6ccc(OC)c(OC)c6)cc5)o4)ccc3[nH]2)cc1 [Compound 7n] , state its recorded viability at 96 h, 50 µM.
92

----------
- System: HT-29
- method-summary: Propidium iodide anti-proliferative assay
- Format: cell-based
- test-settings: Homo sapiens, 48 h incubation, read-out: IC50 ± SEM HT-29
property-name: pIC50
To interpret pIC50, take it as minus log10 of a concentration measured in moles per litre.

Given COc1ccc(/C=C/C(=O)c2ccc(NC(=O)CSc3nnc(-c4ccc5[nH]c(-c6ccc(Cl)cc6)nc5c4)o3)cc2)cc1OC , state its recorded pIC50.
4.99

Given COc1ccc(/C=C/C(=O)c2ccc(NC(=O)CSc3nnc(-c4ccc5[nH]c(-c6ccc(Cl)cc6)nc5c4)o3)cc2)cc1 , state its recorded pIC50.
5.65

Given O=C(CSc1nnc(-c2ccc3[nH]c(-c4ccc(Cl)cc4)nc3c2)o1)Nc1ccc(C(=O)/C=C/c2ccccc2)cc1 , state its recorded pIC50.
5.57

Given COc1ccc(/C=C/C(=O)c2ccc(NC(=O)CSc3nnc(-c4ccc5[nH]c(-c6ccc(OC)cc6)nc5c4)o3)cc2)cc1 , state its recorded pIC50.
5.73

Given O=C(CSc1nnc(-c2ccc3[nH]c(-c4ccccc4)nc3c2)o1)Nc1ccc(C(=O)/C=C/c2ccc(Cl)cc2)cc1 , state its recorded pIC50.
5.04

Given COc1ccc(/C=C/C(=O)c2ccc(NC(=O)CSc3nnc(-c4ccc5[nH]c(-c6ccc(OC)c(OC)c6)nc5c4)o3)cc2)cc1 , state its recorded pIC50.
5.38

----------
Answer each item with its documented viability at 96 h, 50 µM.
- method-summary: MTT cell viability assay in normal cells
- Format: cell-based
- test-settings: human, MCF-10A normal mammary epithelial cells
All answers are understood in %, so give the number only.

Given COc1ccc(/C=C/C(=O)c2ccc(NC(=O)CSc3nnc(-c4ccc5[nH]c(-c6ccc(OC)cc6)nc5c4)o3)cc2)cc1 , state its recorded viability at 96 h, 50 µM.
94

Given O=C(CSc1nnc(-c2ccc3[nH]c(-c4ccccc4)nc3c2)o1)Nc1ccc(C(=O)/C=C/c2ccccc2)cc1 , state its recorded viability at 96 h, 50 µM.
91

Given COc1ccc(/C=C/C(=O)c2ccc(NC(=O)CSc3nnc(-c4ccc5[nH]c(-c6ccccc6)nc5c4)o3)cc2)cc1OC , state its recorded viability at 96 h, 50 µM.
89

Given COc1cc(/C=C/C(=O)c2ccc(NC(=O)CSc3nnc(-c4ccc5[nH]c(-c6ccc(Cl)cc6)nc5c4)o3)cc2)cc(OC)c1OC , state its recorded viability at 96 h, 50 µM.
89

Given COc1ccc(/C=C/C(=O)c2ccc(NC(=O)CSc3nnc(-c4ccc5[nH]c(-c6cc(OC)c(OC)c(OC)c6)nc5c4)o3)cc2)cc1 , state its recorded viability at 96 h, 50 µM.
91

Given COc1ccc(/C=C/C(=O)c2ccc(NC(=O)CSc3nnc(-c4ccc5[nH]c(-c6ccc(OC)c(OC)c6)nc5c4)o3)cc2)cc1 , state its recorded viability at 96 h, 50 µM.
91

Given O=C(CSc1nnc(-c2ccc3[nH]c(-c4ccc(Cl)cc4)nc3c2)o1)Nc1ccc(C(=O)/C=C/c2ccc(Cl)cc2)cc1 , state its recorded viability at 96 h, 50 µM.
91

Given COc1ccc(-c2nc3cc(-c4nnc(SCC(=O)Nc5ccc(C(=O)/C=C/c6ccc(Cl)cc6)cc5)o4)ccc3[nH]2)cc1 , state its recorded viability at 96 h, 50 µM.
89

Given O=C(CSc1nnc(-c2ccc3[nH]c(-c4ccc(Cl)cc4)nc3c2)o1)Nc1ccc(C(=O)/C=C/c2ccccc2)cc1 , state its recorded viability at 96 h, 50 µM.
87

Given COc1ccc(-c2nc3cc(-c4nnc(SCC(=O)Nc5ccc(C(=O)/C=C/c6ccc(Cl)cc6)cc5)o4)ccc3[nH]2)cc1OC , state its recorded viability at 96 h, 50 µM.
94

Given COc1ccc(/C=C/C(=O)c2ccc(NC(=O)CSc3nnc(-c4ccc5[nH]c(-c6ccc(OC)c(OC)c6)nc5c4)o3)cc2)cc1OC , state its recorded viability at 96 h, 50 µM.
87

Given COc1cc(-c2nc3cc(-c4nnc(SCC(=O)Nc5ccc(C(=O)/C=C/c6ccc(Cl)cc6)cc5)o4)ccc3[nH]2)cc(OC)c1OC , state its recorded viability at 96 h, 50 µM.
87

Given COc1ccc(-c2nc3cc(-c4nnc(SCC(=O)Nc5ccc(C(=O)/C=C/c6ccccc6)cc5)o4)ccc3[nH]2)cc1 , state its recorded viability at 96 h, 50 µM.
91

----------
Answer each item with its documented pIC50.
To interpret pIC50, take it as minus log10 of a concentration measured in moles per litre.

# get_value(readout= pIC50, system= EGFR (Homo sapiens)) for COc1cc(/C=C/C(=O)c2ccc(NC(=O)CSc3nnc(-c4ccc5[nH]c(-c6ccccc6)nc5c4)o3)cc2)cc(OC)c1OC
5.94

# get_value(readout= pIC50, system= EGFR (Homo sapiens)) for COc1ccc(-c2nc3cc(-c4nnc(SCC(=O)Nc5ccc(C(=O)/C=C/c6ccccc6)cc5)o4)ccc3[nH]2)cc1
6.26

# get_value(readout= pIC50, system= EGFR (Homo sapiens)) for COc1ccc(/C=C/C(=O)c2ccc(NC(=O)CSc3nnc(-c4ccc5[nH]c(-c6ccc(OC)cc6)nc5c4)o3)cc2)cc1
6.05

# get_value(readout= pIC50, system= EGFR (Homo sapiens)) for O=C(CSc1nnc(-c2ccc3[nH]c(-c4ccc(Cl)cc4)nc3c2)o1)Nc1ccc(C(=O)/C=C/c2ccc(Cl)cc2)cc1
5.77

# get_value(readout= pIC50, system= EGFR (Homo sapiens)) for COc1ccc(-c2nc3cc(-c4nnc(SCC(=O)Nc5ccc(C(=O)/C=C/c6ccc(Cl)cc6)cc5)o4)ccc3[nH]2)cc1OC
5.41

# get_value(readout= pIC50, system= EGFR (Homo sapiens)) for COc1ccc(-c2nc3cc(-c4nnc(SCC(=O)Nc5ccc(C(=O)/C=C/c6ccc(Cl)cc6)cc5)o4)ccc3[nH]2)cc1
6.10

# get_value(readout= pIC50, system= EGFR (Homo sapiens)) for COc1ccc(-c2nc3cc(-c4nnc(SCC(=O)Nc5ccc(C(=O)/C=C/c6ccccc6)cc5)o4)ccc3[nH]2)cc1OC
5.46

# get_value(readout= pIC50, system= EGFR (Homo sapiens)) for COc1ccc(-c2nc3cc(-c4nnc(SCC(=O)Nc5ccc(C(=O)/C=C/c6ccc(OC)c(OC)c6)cc5)o4)ccc3[nH]2)cc1
5.85

# get_value(readout= pIC50, system= EGFR (Homo sapiens)) for COc1cc(-c2nc3cc(-c4nnc(SCC(=O)Nc5ccc(C(=O)/C=C/c6ccc(Cl)cc6)cc5)o4)ccc3[nH]2)cc(OC)c1OC
5.55

# get_value(readout= pIC50, system= EGFR (Homo sapiens)) for COc1ccc(/C=C/C(=O)c2ccc(NC(=O)CSc3nnc(-c4ccc5[nH]c(-c6ccc(Cl)cc6)nc5c4)o3)cc2)cc1
5.64
